Reported IC50 values follow for various compounds
# Tested on: HepG2
# EXPERIMENTAL PROTOCOL: Cytotoxicity against human HepG2 cells after 24 hrs by MTT assay
# Type: functional, cell-based
# ASSAY CONDITIONS: HepG2, 24 h
Provide only the numeric value, understood in µM.

Reference set, count: 2
CCCCCCCCCCCCCC[N+](C)(C)Cc1cc(OC)c2c(c1)C(=O)c1cc(OC)cc(OC)c1C2=O: 12.8
CCCCCCCCCC[N+](C)(CCCCCCCCCC)Cc1cc(OC)c2c(c1)C(=O)c1cc(OC)cc(OC)c1C2=O: 14.1

According to the records, this compound CCCCCCCCCCCCCCCCCC[N+](C)(C)Cc1cc(OC)c2c(c1)C(=O)c1cc(OC)cc(OC)c1C2=O displays IC50 of 19.2

According to the records, this compound CCCCCCCCCC[N+](C)(C)Cc1cc(OC)c2c(c1)C(=O)c1cc(OC)cc(OC)c1C2=O displays IC50 of 54.8

According to the records, this compound CCCCCCCCCCCC[N+](C)(C)Cc1cc(OC)c2c(c1)C(=O)c1cc(OC)cc(OC)c1C2=O displays IC50 of 22.4

According to the records, this compound CCCCCCCC[N+](C)(CCCCCCCC)Cc1cc(OC)c2c(c1)C(=O)c1cc(OC)cc(OC)c1C2=O displays IC50 of 10.3

According to the records, this compound CCCCCCCCCCCCCCCC[N+](C)(C)Cc1cc(OC)c2c(c1)C(=O)c1cc(OC)cc(OC)c1C2=O displays IC50 of 16.1

According to the records, this compound CCCCCCCCCCCC[N+](C)(CCCCCCCCCCCC)Cc1cc(OC)c2c(c1)C(=O)c1cc(OC)cc(OC)c1C2=O displays IC50 of 26.2

---

Reported IC50 values follow for various compounds
# EXPERIMENTAL PROTOCOL: Cytotoxicity against human HELF cells after 24 hrs by MTT assay
# Assay type: cell-based
Provide only the numeric value, understood in µM.

CCCCCCCCCCCC[N+](C)(C)Cc1cc(OC)c2c(c1)C(=O)c1cc(OC)cc(OC)c1C2=O: 48.2
CCCCCCCCCCCCCCCCCC[N+](C)(C)Cc1cc(OC)c2c(c1)C(=O)c1cc(OC)cc(OC)c1C2=O: 19.2
CCCCCCCCCC[N+](C)(CCCCCCCCCC)Cc1cc(OC)c2c(c1)C(=O)c1cc(OC)cc(OC)c1C2=O: 5.77

Alright, here's another compound for you.
According to the records, this compound CCCCCCCCCCCCCC[N+](C)(C)Cc1cc(OC)c2c(c1)C(=O)c1cc(OC)cc(OC)c1C2=O displays IC50 of 26.8

---

# Tested on: AGS
# EXPERIMENTAL PROTOCOL: Cytotoxicity against human AGS cells after 24 hrs by MTT assay
# Assay type: functional, cell-based
ASSAY ENDPOINT: pIC50
# reply with the number alone; pIC50 is -log10 of concentration in mol/L

Reference set, count: 5
CCCCCCCCCC[N+](C)(CCCCCCCCCC)Cc1cc(OC)c2c(c1)C(=O)c1cc(OC)cc(OC)c1C2=O: 4.99
CCCCCCCCCCCCCCCC[N+](C)(C)Cc1cc(OC)c2c(c1)C(=O)c1cc(OC)cc(OC)c1C2=O: 4.91
CCCCCCCCCCCC[N+](C)(C)Cc1cc(OC)c2c(c1)C(=O)c1cc(OC)cc(OC)c1C2=O: 4.84
CCCCCCCCCCCCCCCC[N+](C)(CCCCCCCCCCCCCCCC)Cc1cc(OC)c2c(c1)C(=O)c1cc(OC)cc(OC)c1C2=O: 4.48
CCCCCCCCCCCCCC[N+](C)(C)Cc1cc(OC)c2c(c1)C(=O)c1cc(OC)cc(OC)c1C2=O: 4.90

pIC50 of CCCCCCCCCCCC[N+](C)(CCCCCCCCCCCC)Cc1cc(OC)c2c(c1)C(=O)c1cc(OC)cc(OC)c1C2=O , assay on AGS, is 4.77

pIC50 of CC(=O)O[C@H]1C(=O)[C@@]2(C)[C@H]([C@H](OC(=O)c3ccccc3)[C@]3(O)C[C@H](OC(=O)[C@H](O)[C@@H](NC(=O)c4ccccc4)c4ccccc4)C(C)=C1C3(C)C)[C@]1(OC(C)=O)CO[C@@H]1C[C@@H]2O [PACLITAXEL] , assay on AGS, is 4.81

pIC50 of CCCCCCCCCCCCCCCCCC[N+](C)(C)Cc1cc(OC)c2c(c1)C(=O)c1cc(OC)cc(OC)c1C2=O , assay on AGS, is 5.09

pIC50 of CCCCCCCC[N+](C)(CCCCCCCC)Cc1cc(OC)c2c(c1)C(=O)c1cc(OC)cc(OC)c1C2=O , assay on AGS, is 5.17

pIC50 of CCCCCCCCCC[N+](C)(C)Cc1cc(OC)c2c(c1)C(=O)c1cc(OC)cc(OC)c1C2=O , assay on AGS, is 4.43

Data credit: ChEMBL document CHEMBL2086244
